# protocol.details: Single oral dose, randomized, crossover PK-DDI study of voriconazole with clarithromycin; plasma voriconazole by RP HPLC UV-Vis, non-compartmental analysis
# Type: in vivo, human
# study.conditions: male, human, plasma, oral, 400 mg, Voriconazole plasma concentration, 0.5 hrs; Series 1: voriconazole 400 mg alone
measurement.type: concentration at 0.5 h (ng/mL)

{"molecule": "C[C@@H](c1ncncc1F)[C@](O)(Cn1cncn1)c1ccc(F)cc1F [voriconazole]", "recorded.measurement": 225}

====

# protocol.details: Single oral dose, randomized, crossover PK-DDI study of voriconazole with clarithromycin; plasma voriconazole by RP HPLC UV-Vis, non-compartmental analysis
# Type: in vivo, human
# study.conditions: male, human, plasma, oral, Voriconazole plasma concentration, 6 hrs; Series 2: voriconazole 400 mg along with clarithromycin 500 mg

{"mol.smiles": "C[C@@H](c1ncncc1F)[C@](O)(Cn1cncn1)c1ccc(F)cc1F", "concentration at 6 h": "433 ng/mL"}
